Test system: B6C3F1 mice, Lewis lung carcinoma iv, survival T/C
protocol.description: NCI In Vivo Anticancer Drug Screen. Data for tumor model Lewis Lung Carcinoma (intravenous) in B6C3F1 mice
condition.description: endpoint: median survival time; dose: 200.0 mg/kg/injection; schedule: Q01DX009 (ip); vehicle: saline with Tween-80; higher = longer survival
Inconclusive results and toxic doses are left out.
observation.type: T/C

response.value for `O=C(O[Si](Cc1ccccc1)(Cc1ccccc1)Cc1ccccc1)N(CCCl)CCCl` (field: T/C) = 124 % of control

Lookup result for `O=[N+]([O-])c1ccc(-n2[nH]nnc2=S)cc1` ; measured T/C: 94 % of control

Lab note: CCCCOCN(COCCCC)C(C)Cc1ccccc1 (stereo not drawn) gave T/C of 89 % of control
